# method: qHTS for Inhibitors of the Aldehyde Dehydrogenase Family (ALDH1A2, ALDH1A3, ALDH2, ALDH3A1) (AID 2061307); note: nearly all actives have a fitted effect of over 50% in size
# run.parameters: ALDH inhibition qHTS; series mostly up to 50.3 µM
Results filed as inconclusive are left out. Calls of active or inactive are those of the source. Calls come from the whole dose curve; as a rule, active = well fitted inhibition curve with a large enough effect; inconclusive = small, poorly fitted or top-dose-only effect; inactive = no such curve, though single readings can be large or run the other way.
The categories you may choose from are yes (active), no (inactive)

Query: What did the test return for O=C(c1ccc2ccccc2c1)c1no[n+]([O-])c1C(=O)c1ccc2ccccc2c1 ?
Result: yes

Query: What is the recorded call for this compound in the test? COc1ccc(C2Nc3ccccc3C(=O)N2Cc2ccco2)cc1COc1ccc(NC(C)=O)cc1 (centres undefined)
Result: no

Query: Assay result, entry NC(=O)C1CCN(c2ncc(-c3ccc(Br)cc3)s2)CC1 — outcome?
Result: yes

Query: Write down the call the test reported for this compound. Item: Cc1cccc2c1NC(=O)C2(O)CC(=O)c1ccco1 (centres undefined)
Result: yes

Query: Could you check what this test reported for Cc1cc(NC(=O)Nc2nnc(-c3ccncc3)s2)ccc1Br ?
Result: yes

Query: Assay outcome for O=C(Nc1cccc(Oc2ncccn2)c1)c1cccc(C(F)(F)F)c1 : what was it?
Result: no

Query: So what was the verdict on CC(=O)Nc1sc2c(c1-c1csc3ccccc13)CCNC2 in this test?
Result: no

Query: Dear colleague, could you share the recorded outcome for COc1cc2ccccc2cc1C(=O)NC(=S)Nc1cccc(C(=O)O)c1 when you have a moment?
Result: yes

Query: Recorded call for CC(=O)c1cccc(-c2csc(N3CCC(C(N)=O)CC3)n2)c1 ?
Result: yes

Query: Record lookup: outcome of this test for Cc1ccc(-c2cnn(CC(=O)NCCc3ccccc3)c(=O)c2)cc1 ?
Result: yes

Query: For O=C(O)c1ccc(-n2cccc2/C=C2\SC(=O)N(Cc3ccc(F)cc3)C2=O)cc1 , which call appears in the assay record?
Result: yes

Query: How did this test come out for COc1ccc2c(c1)CCNC2Cc1ccc(OC)c(O)c1 (centres undefined) ?
Result: no

Query: Which outcome was assigned to COC(=O)c1ccc(S(=O)(=O)N2CCC(c3nc4ccccc4s3)CC2)cc1 in this test?
Result: no

Query: # lookup: test call for COc1ccc(C2Nc3ccccc3C(=O)N2Cc2ccco2)cc1COc1ccc(N)cc1 (centres undefined)
Result: yes
